Catalogue of compounds with associated Emax
- Experimental System: human GluR2 flip (unedited) AMPA receptor subunit (Homo sapiens)
- Construct: expressed in transfected cells
- Sequence (P42262 25-883 isoform P42262-2 limits assumed): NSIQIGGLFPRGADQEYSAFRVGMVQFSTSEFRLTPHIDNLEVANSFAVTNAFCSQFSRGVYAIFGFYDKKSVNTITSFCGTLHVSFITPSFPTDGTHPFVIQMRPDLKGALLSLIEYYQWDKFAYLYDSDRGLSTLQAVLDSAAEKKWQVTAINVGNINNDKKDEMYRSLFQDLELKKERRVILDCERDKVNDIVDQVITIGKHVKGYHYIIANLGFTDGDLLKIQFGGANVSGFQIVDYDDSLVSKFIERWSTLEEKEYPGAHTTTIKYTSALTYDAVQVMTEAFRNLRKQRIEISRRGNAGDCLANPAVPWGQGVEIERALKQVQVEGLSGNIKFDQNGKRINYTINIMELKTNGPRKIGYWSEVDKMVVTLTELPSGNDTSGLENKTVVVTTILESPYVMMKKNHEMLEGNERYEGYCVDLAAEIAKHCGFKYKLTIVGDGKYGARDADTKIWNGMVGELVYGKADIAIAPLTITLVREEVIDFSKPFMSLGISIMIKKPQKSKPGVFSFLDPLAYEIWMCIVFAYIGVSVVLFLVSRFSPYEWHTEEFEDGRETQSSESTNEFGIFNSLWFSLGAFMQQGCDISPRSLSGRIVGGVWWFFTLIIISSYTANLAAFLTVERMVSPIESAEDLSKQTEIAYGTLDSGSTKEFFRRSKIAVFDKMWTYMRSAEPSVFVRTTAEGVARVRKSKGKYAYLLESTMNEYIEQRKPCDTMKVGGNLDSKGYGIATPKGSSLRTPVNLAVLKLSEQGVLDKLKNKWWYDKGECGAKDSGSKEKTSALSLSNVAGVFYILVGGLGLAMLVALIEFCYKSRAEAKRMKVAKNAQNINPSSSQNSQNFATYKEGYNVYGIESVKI
- Procedure Summary: Calcium influx fluorescence assay (FLUO4, FLIPR), potentiation of glutamate response
- Type: cell-based
- Condition Parameters: HEK293; HEK 293 cells expressing human GluR2 flip (unedited); fluorescence increase relative to that induced by cyclothiazide at maximum response; read-out: activity relative to cyclothiazide (at its maximal response)

CC(C)S(=O)(=O)N[C@@H]1COC[C@@H]1c1ccc(-c2cncc(F)c2)cc1 (racemic) | ≥ 50%

For this compound ( CC(C)S(=O)(=O)N[C@@H]1COC[C@@H]1c1ccc(-c2ccc(C#N)cc2)cc1 (racemic) ), measured Emax is ≥ 50%

// field: Emax; key: CC(C)S(=O)(=O)N[C@@H]1COC[C@@H]1c1ccc(-c2ccc(F)nc2)cc1 (racemic) ; value = ≥ 50%

What the record says about Cc1cncc(-c2ccc([C@H]3COC[C@H]3NS(=O)(=O)C(C)C)cc2)c1 (racemic) : Emax is ≥ 50%

So for CC(C)S(=O)(=O)N[C@@H]1COC[C@@H]1c1ccc(-c2cccs2)cc1 (racemic) , the logged Emax turned out to be ≥ 50%

Input Cc1ccc(-c2ccc([C@H]3COC[C@H]3NS(=O)(=O)C(C)C)cc2)cn1 (racemic) . Output Emax: ≥ 50%

Briefly, Emax measured for CC(C)S(=O)(=O)N[C@@H]1COC[C@@H]1c1ccc(-c2ccc(F)cc2)cc1 (racemic) : ≥ 50%

# Emax (compound: CC(C)S(=O)(=O)N[C@@H]1COC[C@@H]1c1ccc(-c2ccsc2)cc1 (racemic) ) is ≥ 50%
